Assay overview: Proteolytic stability in α-chymotrypsin solution
Type: in vitro ADME
Measurement parameters: α-chymotrypsin solution, pH 7.4; after 1 h exposure to α-chymotrypsin; read-out: peptide remaining intact
Positions of bridges follow the written chain, without caps; N, C: chain ends. Non-standard residues stand in square brackets, D forms with d. Residues, ends and D or L forms follow the SMILES beside them. S5 = C=CCCC[C@](C)(N)C(=O)O
Reported endpoint: remaining at 1 h, 0.1 mM

Identify measured remaining at 1 h, 0.1 mM corresponding to CC[C@H](C)[C@H](NC(C)=O)C(=O)N[C@@H](CC(N)=O)C(=O)N[C@@H](CC(C)C)C(=O)N[C@@H](CCCCN)C(=O)N[C@@H](C)C(=O)N[C@@H](CC(C)C)C(=O)N[C@@H](C)C(=O)N[C@@H](C)C(=O)N[C@@]1(C)CCCC=CCCC[C@@](C)(C(=O)N[C@@H](CC(C)C)C(N)=O)NC(=O)[C@H](CCCCN)NC(=O)[C@H](CCCCN)NC(=O)[C@H](C)NC1=O [MP9] (Ac-INLKALAA[S5]AKK[S5]L-NH2; staple 9-13)
> 87%
